// values below are reported tissue uptake at 1 h
experiment: Biodistribution in Jurkat tumor-bearing CB-17 SCID mice; type: in vivo; settings: female, CB-17 SCID, mouse, in vivo, iv, total radioactivity, % iD/g Pancreas
Non-standard residues stand in square brackets, D forms with d. Residues, ends and D or L forms follow the SMILES beside them. Groups on a side chain read outwards from the residue. *: point of attachment. DOTA = O=C(O)CN1CCN(CC(=O)O)CCN(CC(=O)*)CCN(CC(=O)O)CC1; dTyr(3-I) = N[C@H](Cc1ccc(O)c(I)c1)C(=O)O; 2Nal = N[C@@H](Cc1ccc2ccccc2c1)C(=O)O; dNMeOrn = CN[C@H](CCCN)C(=O)O; HYNIC = NNc1ccc(C(=O)*)cn1; 4Amb = NCc1ccc(C(=O)O)cc1; 4Abz = Nc1ccc(C(=O)O)cc1; dDap = NC[C@@H](N)C(=O)O

[
  {
    "Compound": "C[C@@H](NC(=O)[C@@H](CCCNC(=N)N)NC(=O)[C@@H](CN)NC(=O)CN1CCN(CC(=O)O)CCN(CC(=O)O)CCN(CC(=O)O)CC1)C(=O)NCc1ccc(C(=O)NCCC[C@@H]2C(=O)N[C@@H](CCCNC(=N)N)C(=O)N[C@@H](Cc3ccc4ccccc4c3)C(=O)NCC(=O)N[C@H](Cc3ccc(O)c(I)c3)C(=O)N2C)cc1 [CXCR4-DOTA-2 [Lu]] (cyclo([dTyr(3-I)][dNMeOrn]([4Amb-dA-dR-dDap-DOTA])R[2Nal]G))",
    "tissue uptake at 1 h (%ID/g)": 0.53
  },
  {
    "Compound": "CN1C(=O)[C@@H](Cc2ccc(O)cc2)NC(=O)CNC(=O)[C@H](Cc2ccc3ccccc3c2)NC(=O)[C@H](CCCNC(=N)N)NC(=O)[C@H]1CCCNC(=O)c1ccc(CNC(=O)CN2CCN(CC(=O)O)CCN(CC(=O)O)CCN(CC(=O)O)CC2)cc1 [^68Ga-Pentixafor, metal not drawn, reference compound] (cyclo([dY][dNMeOrn]([4Amb-DOTA])R[2Nal]G))",
    "tissue uptake at 1 h (%ID/g)": 0.14
  },
  {
    "Compound": "C[C@@H](NC(=O)[C@@H](CCCNC(=N)N)NC(=O)[C@@H](CN)NC(=O)CN1CCN(CC(=O)O)CCN(CC(=O)O)CCN(CC(=O)O)CC1)C(=O)NCc1ccc(C(=O)NCCC[C@@H]2C(=O)N[C@@H](CCCNC(=N)N)C(=O)N[C@@H](Cc3ccc4ccccc4c3)C(=O)NCC(=O)N[C@H](Cc3ccc(O)cc3)C(=O)N2C)cc1 [CXCR4-DOTA-1 [Lu]] (cyclo([dY][dNMeOrn]([4Amb-dA-dR-dDap-DOTA])R[2Nal]G))",
    "tissue uptake at 1 h (%ID/g)": 0.39
  },
  {
    "Compound": "C[C@@H](NC(=O)[C@@H](CCCNC(=N)N)NC(=O)[C@@H](CN)NC(=O)c1ccc(NN)nc1)C(=O)Nc1ccc(C(=O)NCCC[C@@H]2C(=O)N[C@@H](CCCNC(=N)N)C(=O)N[C@@H](Cc3ccc4ccccc4c3)C(=O)NCC(=O)N[C@H](Cc3ccc(O)cc3)C(=O)N2C)cc1 [Tc-CXCR4-13] (cyclo([dY][dNMeOrn]([4Abz-dA-dR-dDap-HYNIC])R[2Nal]G))",
    "tissue uptake at 1 h (%ID/g)": 0.36
  },
  {
    "Compound": "C[C@@H](NC(=O)[C@@H](CCCNC(=N)N)NC(=O)[C@@H](CN)NC(=O)CCCCCNC(=O)[C@@H](CNC(=O)CN1CCN(CC(=O)O)CCN(CC(=O)O)CCN(CC(=O)O)CC1)NC(=O)CCCCC[N+]1=C(/C=C/C=C/C=C2/N(C)c3ccc(S(=O)(=O)O)cc3C2(C)C)C(C)(C)c2cc(S(=O)(=O)[O-])ccc21)C(=O)Nc1ccc(C(=O)NCCC[C@@H]2C(=O)N[C@@H](CCCNC(=N)N)C(=O)N[C@@H](Cc3ccc4ccccc4c3)C(=O)NCC(=O)N[C@H](Cc3ccc(O)cc3)C(=O)N2C)cc1 [[^natLu]CXCR4-OI-3, metal not drawn]",
    "tissue uptake at 1 h (%ID/g)": 0.44
  },
  {
    "Compound": "C[C@@H](NC(=O)[C@@H](CCCNC(=N)N)NC(=O)[C@@H](CN)NC(=O)CN1CCN(CC(=O)O)CCN(CC(=O)O)CCN(CC(=O)O)CC1)C(=O)Nc1ccc(C(=O)NCCC[C@@H]2C(=O)N[C@@H](CCCNC(=N)N)C(=O)N[C@@H](Cc3ccc4ccccc4c3)C(=O)NCC(=O)N[C@H](Cc3ccc(O)c(I)c3)C(=O)N2C)cc1 [CXCR4-DOTA-4 [Lu]] (cyclo([dTyr(3-I)][dNMeOrn]([4Abz-dA-dR-dDap-DOTA])R[2Nal]G))",
    "tissue uptake at 1 h (%ID/g)": 0.52
  },
  {
    "Compound": "C[C@@H](NC(=O)[C@@H](CCCNC(=N)N)NC(=O)[C@@H](CN)NC(=O)CN1CCN(CC(=O)O)CCN(CC(=O)O)CCN(CC(=O)O)CC1)C(=O)Nc1ccc(C(=O)NCCC[C@@H]2C(=O)N[C@@H](CCCNC(=N)N)C(=O)N[C@@H](Cc3ccc4ccccc4c3)C(=O)NCC(=O)N[C@H](Cc3ccc(O)cc3)C(=O)N2C)cc1 [CXCR4-DOTA-3 [Lu]] (cyclo([dY][dNMeOrn]([4Abz-dA-dR-dDap-DOTA])R[2Nal]G))",
    "tissue uptake at 1 h (%ID/g)": 0.28
  }
]

====

The entries below are paired with their reported tissue uptake at 6 h.
test: Biodistribution in Jurkat tumor-bearing CB-17 SCID mice; format: in vivo; settings: female, CB-17 SCID, mouse, in vivo, iv, total radioactivity, % iD/g Intestine
Non-standard residues stand in square brackets, D forms with d. Residues, ends and D or L forms follow the SMILES beside them. Groups on a side chain read outwards from the residue. *: point of attachment. DOTA = O=C(O)CN1CCN(CC(=O)O)CCN(CC(=O)*)CCN(CC(=O)O)CC1; dTyr(3-I) = N[C@H](Cc1ccc(O)c(I)c1)C(=O)O; 2Nal = N[C@@H](Cc1ccc2ccccc2c1)C(=O)O; dNMeOrn = CN[C@H](CCCN)C(=O)O; 4Abz = Nc1ccc(C(=O)O)cc1; dDap = NC[C@@H](N)C(=O)O

[
  {
    "Compound": "C[C@@H](NC(=O)[C@@H](CCCNC(=N)N)NC(=O)[C@@H](CN)NC(=O)CN1CCN(CC(=O)O)CCN(CC(=O)O)CCN(CC(=O)O)CC1)C(=O)Nc1ccc(C(=O)NCCC[C@@H]2C(=O)N[C@@H](CCCNC(=N)N)C(=O)N[C@@H](Cc3ccc4ccccc4c3)C(=O)NCC(=O)N[C@H](Cc3ccc(O)cc3)C(=O)N2C)cc1 [CXCR4-DOTA-3 [Lu]] (cyclo([dY][dNMeOrn]([4Abz-dA-dR-dDap-DOTA])R[2Nal]G))",
    "Unit Spec": "%ID/g",
    "tissue uptake at 6 h": 0.44
  },
  {
    "Compound": "C[C@@H](NC(=O)[C@@H](CCCNC(=N)N)NC(=O)[C@@H](CN)NC(=O)CN1CCN(CC(=O)O)CCN(CC(=O)O)CCN(CC(=O)O)CC1)C(=O)Nc1ccc(C(=O)NCCC[C@@H]2C(=O)N[C@@H](CCCNC(=N)N)C(=O)N[C@@H](Cc3ccc4ccccc4c3)C(=O)NCC(=O)N[C@H](Cc3ccc(O)c(I)c3)C(=O)N2C)cc1 [CXCR4-DOTA-4 [Lu]] (cyclo([dTyr(3-I)][dNMeOrn]([4Abz-dA-dR-dDap-DOTA])R[2Nal]G))",
    "Unit Spec": "%ID/g",
    "tissue uptake at 6 h": 0.82
  }
]

====

assay: Biodistribution in Jurkat tumor-bearing CB-17 SCID mice; type: in vivo; settings: female, CB-17 SCID, mouse, in vivo, iv, total radioactivity, % iD/g Intestine
Non-standard residues stand in square brackets, D forms with d. Residues, ends and D or L forms follow the SMILES beside them. Groups on a side chain read outwards from the residue. *: point of attachment. DOTA = O=C(O)CN1CCN(CC(=O)O)CCN(CC(=O)*)CCN(CC(=O)O)CC1; dTyr(3-I) = N[C@H](Cc1ccc(O)c(I)c1)C(=O)O; 2Nal = N[C@@H](Cc1ccc2ccccc2c1)C(=O)O; dNMeOrn = CN[C@H](CCCN)C(=O)O; 4Abz = Nc1ccc(C(=O)O)cc1; dDap = NC[C@@H](N)C(=O)O
Readout Kind: tissue uptake at 48 h (%ID/g)

[
  {
    "Molecule": "C[C@@H](NC(=O)[C@@H](CCCNC(=N)N)NC(=O)[C@@H](CN)NC(=O)CN1CCN(CC(=O)O)CCN(CC(=O)O)CCN(CC(=O)O)CC1)C(=O)Nc1ccc(C(=O)NCCC[C@@H]2C(=O)N[C@@H](CCCNC(=N)N)C(=O)N[C@@H](Cc3ccc4ccccc4c3)C(=O)NCC(=O)N[C@H](Cc3ccc(O)c(I)c3)C(=O)N2C)cc1 [CXCR4-DOTA-4 [Lu]] (cyclo([dTyr(3-I)][dNMeOrn]([4Abz-dA-dR-dDap-DOTA])R[2Nal]G))",
    "Readout Kind": "tissue uptake at 48 h",
    "Readout Value": 0.28
  },
  {
    "Molecule": "C[C@@H](NC(=O)[C@@H](CCCNC(=N)N)NC(=O)[C@@H](CN)NC(=O)CN1CCN(CC(=O)O)CCN(CC(=O)O)CCN(CC(=O)O)CC1)C(=O)Nc1ccc(C(=O)NCCC[C@@H]2C(=O)N[C@@H](CCCNC(=N)N)C(=O)N[C@@H](Cc3ccc4ccccc4c3)C(=O)NCC(=O)N[C@H](Cc3ccc(O)cc3)C(=O)N2C)cc1 [CXCR4-DOTA-3 [Lu]] (cyclo([dY][dNMeOrn]([4Abz-dA-dR-dDap-DOTA])R[2Nal]G))",
    "Readout Kind": "tissue uptake at 48 h",
    "Readout Value": 0.11
  }
]

Origin of measurements: patent US20250288704A1
